Data credit: patent US20210388105A1

Measured pEC50 accompanies every entry in the list below.
Biological target: T1, human CD39 (full length, on cells) (human, UniProt P49961 1-510)
T1 construct: Recombinant on CHOK1-hCD39 cells or natural on SK-MEL-28, SK-MEL-5 and MOLP-8 cells; the cell line is named under assay; also called hCD39; ENTPD1
T1 sequence: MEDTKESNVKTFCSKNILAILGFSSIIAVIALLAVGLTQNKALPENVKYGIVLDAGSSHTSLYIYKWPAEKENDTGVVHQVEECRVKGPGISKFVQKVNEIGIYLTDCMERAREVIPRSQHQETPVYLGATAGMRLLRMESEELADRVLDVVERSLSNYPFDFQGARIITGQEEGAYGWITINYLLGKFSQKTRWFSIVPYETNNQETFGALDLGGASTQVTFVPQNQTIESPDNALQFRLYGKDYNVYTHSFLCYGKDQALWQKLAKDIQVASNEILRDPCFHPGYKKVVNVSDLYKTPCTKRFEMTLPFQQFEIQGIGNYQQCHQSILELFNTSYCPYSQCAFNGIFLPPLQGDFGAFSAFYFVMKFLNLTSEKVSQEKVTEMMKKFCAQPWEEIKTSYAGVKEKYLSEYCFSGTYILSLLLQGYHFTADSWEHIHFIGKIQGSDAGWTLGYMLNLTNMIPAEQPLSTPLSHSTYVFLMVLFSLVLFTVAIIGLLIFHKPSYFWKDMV
Experiment: FACS, MOLP-8 cells
Just so you know, pEC50 here is -log10 of the concentration in molar units; reply with that number alone.

[[record]]
binder = "hu14.H3L3 (antibody, V domains shown, humanized c14) VH: EVQLVESGGGLVKPGGSLRLSCAASGFTFSKYWMNWVRQSPGKGLEWVAEIRLKSNKYGTHYAESVKGRFTISRDDSKNTVYLQMNSLKTEDTAVYYCTTQLDLYWFFDVWGQGTTVTVSS VL: EIVLTQSPATLSVSPGERATLSCRASQSISDYLHWYQQKPGQSPRLLIYYASQSISGIPARFSGSGSGTDFTLTISSVEPEDFAVYFCQNGHSLPLTFGGGTKLEIK"
test_value = 8.22


Please look up its pEC50: hu14.H3L4 (antibody, V domains shown, humanized c14) VH: EVQLVESGGGLVKPGGSLRLSCAASGFTFSKYWMNWVRQSPGKGLEWVAEIRLKSNKYGTHYAESVKGRFTISRDDSKNTVYLQMNSLKTEDTAVYYCTTQLDLYWFFDVWGQGTTVTVSS VL: EIVMTQSPATLSVSPGERVTLSCRASQSISDYLHWYQQKPGQSPRLLIYYASQSISGIPARFSGSGSGTDFTLTISSVEPEDFAVYFCQNGHSLPLTFGGGTKLEIK 8.22

Can you check hu14.H3L1 (antibody, V domains shown, humanized c14) VH: EVQLVESGGGLVKPGGSLRLSCAASGFTFSKYWMNWVRQSPGKGLEWVAEIRLKSNKYGTHYAESVKGRFTISRDDSKNTVYLQMNSLKTEDTAVYYCTTQLDLYWFFDVWGQGTTVTVSS VL: EIVLTQSPATLSLSPGERATLSCRASQSISDYLHWYQQKPGQAPRLLIYYASQSISGIPARFSGSGSGTDFTLTISSLEPEDFAVYYCQNGHSLPLTFGGGTKLEIK next? 8.23

Record: hu14.H4L4 (antibody, V domains shown, humanized c14) VH: EVQLVESGGGLVKPGGSMRLSCAASGFTFSKYWMNWVRQSPGKGLEWVAEIRLKSNKYGTHYAESVKGRFTISRDDSKNTVYLQMNSLKTEDTAVYYCTTQLDLYWFFDVWGQGTTVTVSS VL: EIVMTQSPATLSVSPGERVTLSCRASQSISDYLHWYQQKPGQSPRLLIYYASQSISGIPARFSGSGSGTDFTLTISSVEPEDFAVYFCQNGHSLPLTFGGGTKLEIK 8.26

Consider next the binder c14 (antibody, V domains shown, variable regions of mAb14 on human IgG constant regions; also called chimeric antibody c14) VH: EVKLEESGGGLVQPGGSMKLSCVASGFTFSKYWMNWVRQSPEKGLEWVAEIRLKSNKYGTHYAESVKGRFTISRDDSKNNVYLQMNNLRPEDTGIYYCTTQLDLYWFFDVWGAGTTVTVSS VL: DIVMTQSPAILSVTPGDRVSLSCRASQSISDYLHWYQQKSHESPRLLIKYASQSISGIPSRFSGSGSGSNFTLSINSVEPEDVGVYFCQNGHSLPLTFGAGTKLELR in the same way. 7.76

// query: hu14.H2L2 (antibody, V domains shown, humanized c14) VH: EVQLVESGGGLVKPGGSLRLSCAASGFTFSKYWMNWVRQSPGKGLEWVGEIRLKSNKYGTHYAESVKGRFTISRDDSKNTLYLQMNSLKTEDTAVYYCTTQLDLYWFFDVWGQGTTVTVSS VL: EIVLTQSPATLSLSPGERATLSCRASQSISDYLHWYQQKPGQSPRLLIYYASQSISGIPARFSGSGSGTDFTLTISSLEPEDFAVYFCQNGHSLPLTFGGGTKLEIK 8.16
